Hey, just so you know, these numbers are from paper PMC8113231.

# System: A/whooper swan/Hokkaido/1/08 (H5N1/Hokkaido; clade 2.3.2.1)
# assay_overview: microbe, parasite or virus in culture
# Assay type: cell-based
# condition_details: Influenza A virus, H5N1, MDCK; 48–72 h; read-out: EC50, plaque reduction, H5N1/Hokkaido (clade 2.3.2.1)
readout_kind: EC50

Measured on A/whooper swan/Hokkaido/1/08 (H5N1/Hokkaido; clade 2.3.2.1), CC(=O)N[C@H]1[C@H]([C@H](O)[C@H](O)CO)OC(C(=O)O)=C[C@@H]1N=C(N)N [zanamivir] has a documented EC50 of < 10 nM

###

# Test system: A/Puerto Rico/8/34 (H1N1/PR8)
# assay_overview: microbe, parasite or virus in culture
# Assay type: cell-based
# condition_details: Influenza A virus, MDCK; 48–72 h; read-out: EC50, plaque reduction, H1N1/PR8
readout_kind: pEC50
Numbers only, as −log10 of the molar value.

Measured on A/Puerto Rico/8/34 (H1N1/PR8), CC(=O)N[C@H]1[C@H]([C@H](O)[C@H](O)CO)OC(C(=O)O)=C[C@@H]1N=C(N)N has a documented pEC50 of 6.94
